Where a name gives a salt, the structure may show the parent alone.
Reported melting point values follow for various compounds

{"COMPOUND": "CCOc1ccc(-c2ccc3c(c2)C=C(C(=O)Nc2ccc(C[N+](C)(C)C4CCOCC4)cc2)CCO3)cc1 (as salt: chloride) [Compound 250]", "READING": "200 to 204 °C"}
{"COMPOUND": "Cc1ccc(-c2cccc(/C=C/C(=O)Nc3ccc(-c4cccnc4)cc3)c2)cc1 [Compound 192]", "READING": "213 to 214 °C"}
{"COMPOUND": "Cc1ccc(-c2ccc3c(c2)C=C(C(=O)Nc2ccc(C[S+]([O-])c4ccccc4)cc2)CCO3)cc1 (stereo not drawn) [Compound 108]", "READING": "127 to 128 °C"}
{"COMPOUND": "Cc1ccc(-c2cccc(/C=C/C(=O)Nc3ccc(CN4CCCCC4)cc3)c2)cc1 [Compound 70]", "READING": "154 to 156 °C"}
{"COMPOUND": "CN(Cc1ccc(NC(=O)C2=Cc3cc(-c4cccnc4)ccc3OCC2)cc1)C1CCOCC1 [Compound 146]", "READING": "158 to 159 °C"}
{"COMPOUND": "CCSc1ccc(-c2ccc3c(c2)C=C(C(=O)Nc2ccc(CN(C)C4CCOCC4)cc2)CCN3C)cc1 [Compound 320]", "READING": "139 to 141 °C"}
{"COMPOUND": "CN(Cc1ccc(NC(=O)C2=Cc3cc(-c4ccc5c(c4)OCO5)ccc3SCC2)cc1)C1CCOCC1 [Compound 286]", "READING": "193 to 194 °C"}
{"COMPOUND": "CN(Cc1ccc(NC(=O)C2=Cc3cc(-c4ccc(Cl)cc4)ccc3OCC2)cc1)C1CCOCC1 [Compound 181]", "READING": "191 to 192 °C"}
{"COMPOUND": "Cc1ccc(-c2ccc3c(c2)C=C(C(=O)Nc2ccc(C(O)c4cccc[n+]4[O-])cc2)C(C)O3)cc1 (stereo not drawn) [Compound 203]", "READING": "230 to 232 °C"}
{"COMPOUND": "Cc1ccc(-c2ccc3c(c2)C=C(C(=O)Nc2ccc(CN(C(C)C)C(C)C)cc2)CCO3)cc1 [Compound 119]", "READING": "152 to 153 °C"}

Given the entry Cc1ccc(-c2cccc(/C=C/C(=O)Nc3ccc(Cn4ccnc4)cc3)c2)cc1 [Compound 65] , report its measured melting point.
198 to 200 °C

Request the reported melting point associated with Cc1ccc(-c2ccc3c(c2)C=C(C(=O)Nc2ccc(CN(C)C4CCOCC4)cc2)CC(c2ccccc2)O3)cc1 (stereo not drawn) [Compound 101]
178 to 179 °C

Query (compound): Cc1ccc(-c2ccc3c(c2)C=C(C(=O)Nc2ccc(CNC4CCCCC4)cc2)CCO3)cc1 [Compound 114] ; field requested: melting point
183 to 184 °C

What measured melting point goes with COc1ccc(-c2ccc3c(c2)C=C(C(=O)Nc2ccc(CN(C)C4CCC5(CC4)OCCO5)cc2)CCS3)cc1 [Compound 283] ?
198 to 201 °C

Given the compound Cc1ccc(-c2ccc3c(c2)C=C(C(=O)Nc2ccc(C[N+]4(C)CCCCC4)cc2)CC3)cc1 (as salt: iodide) [Compound 16] , what is its reported melting point?
202 to 204 °C

Any idea what its melting point is? The compound is Cc1ccc(S(=O)(=O)N2CCC(c3cccc4c3CCCC(C(=O)Nc3ccc(CN(C)C5CCOCC5)cc3)=C4)CC2)cc1 [Compound 289]
175 to 176 °C

Which value of melting point has been reported for Cc1ccc(-c2ccc3c(c2)C=C(C(=O)Nc2ccc(CN4CCSCC4)cc2)CC3)cc1 [Compound 50] in the records?
178 to 180 °C

Fill in the blank: the reported melting point of Cc1ccc(-c2ccc3c(c2)C=C(C(=O)Nc2ccc(Cc4cccc[n+]4[O-])cc2)CCO3)cc1 [Compound 162] is ____.
188 to 190 °C

I'd like to know its melting point. The compound in question is COCC(COC)N(C)Cc1ccc(NC(=O)C2=Cc3cc(-c4ccc(C)cc4)ccc3OCC2)cc1 [Compound 313]
128 to 132 °C

Return reported melting point; argument: CCCP(=O)(CCC)Cc1ccc(NC(=O)C2=Cc3cc(-c4ccc(C)cc4)ccc3OCC2)cc1 [Compound 168]
219 to 220 °C

Which value of melting point has been reported for CCOc1ccc(-c2ccc3c(c2)C=C(C(=O)Nc2ccc(CN(C)C4CCC5(CC4)OCCO5)cc2)CCO3)cc1 [Compound 287] in the records?
172 to 174 °C
